Data origin: ChEMBL document CHEMBL5303573

- ASSAY CONDITIONS: segatella copri, 12 h, 2 µM;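 also: drug levels quantified by LC–MS prior to and following incubation with the bacterium to assess its biotransformation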
- Description: The drug is tested on Prevotella copri strain: DSM18205 for biotransformation. The drug concentrations were measured before and after a 12-h incubation by liquid-chromatography-coupled mass spectrometry (LC–MS)
REPORTED PROPERTY: Bacterial Biotransformation

1) CN1[C@@H]2CC[C@H]1C[C@@H](OC(=O)C(CO)c1ccccc1)C2 (some centres undefined) : Compound NOT metabolized
2) CS(=O)(=O)O.O.O.O.O=C1Cc2cc(CCN3CCN(c4nsc5ccccc45)CC3)c(Cl)cc2N1 [ZIPRASIDONE MESYLATE] : Compound NOT metabolized
3) CCOC(=O)[C@H](CCc1ccccc1)N[C@@H](C)C(=O)N1CCC[C@H]1C(=O)O.O=C(O)/C=C\C(=O)O [ENALAPRIL MALEATE] : Compound NOT metabolized
